- assay.procedure: Inhibition of Escherichia coli N-terminal His-tagged FabH expressed in Escherichia coli BL21(DE3) after 25 mins
readout.kind: pIC50
Worth noting: pIC50 values are minus log10 of concentrations stated in mol/L.

Known pIC50 results, listed for orientation:
> print(dat)
              structure.as.smiles  test.result
1      Oc1ccc(F)cc1/C=N/c1ccccc1F         5.07
2     Oc1ccc(F)cc1/C=N/CCN1CCNCC1         4.31
3     Oc1ccc(F)cc1/C=N/c1ccccc1Cl         4.93
4      Oc1ccc(F)cc1/C=N/CC1CCCCC1         5.17
5  Oc1ccc(CC/N=C/c2cc(F)ccc2O)cc1         5.57

### Prompt Dear colleague, please send me the reported pIC50 for Oc1ccc(F)cc1/C=N/c1ccc(F)cc1 when you can.
### Response 4.54

### Prompt Dear colleague, please send me the reported pIC50 for Oc1ccc(F)cc1/C=N/C1CCCCC1 when you can.
### Response 5.13

### Prompt Dear colleague, please send me the reported pIC50 for Oc1ccc(F)cc1/C=N/c1ccc(Cl)cc1 when you can.
### Response 4.37

### Prompt Dear colleague, please send me the reported pIC50 for Oc1ccc(F)cc1/C=N/C1CCCC1 when you can.
### Response 4.74
